The reported numbers originate from PubChem BioAssay AID2060892.

# Tested on: HOP-62 complex spheroids with HUVEC/MSC, viability
# TEST DETAILS: Anticancer human tumor HOP-62 cell line growth inhibition [RAS];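 note: spheroids exposed to agents for seven days before readout; 100% = DMSO vehicle control viability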
# MEASUREMENT CONTEXT: compound 0.1 µM; stronger effect = lower value
viability, T/C values for the molecules below.
PARAMETER: viability, T/C

[[record]]
molecule = "C#Cc1c(F)ccc2cc(O)cc(-c3ncc4c(N5CC6CCC(C5)N6)nc(OCC56CCCN5CC(F)C6)nc4c3F)c12 (configuration not stated)"
experimental_value = "113% [middle of 8 runs]"

[[record]]
molecule = "C[C@@H](NC(=O)c1ncnc(N)c1Cl)c1ncc(C(=O)Nc2cc(C(F)(F)F)c(Cl)cn2)s1"
experimental_value = "98.6% [middle of 4 runs]"

[[record]]
molecule = "CC(C)NCC(C(=O)N1CCN(c2ncnc3c2C(C)CC3O)CC1)c1ccc(Cl)cc1 (configuration not stated)"
experimental_value = "105% [middle of 4 runs]"

[[record]]
molecule = "C=CC(=O)Nc1cc(Nc2nccc(-c3cn(C)c4ccccc34)n2)c(OC)cc1N(C)CCN(C)C"
experimental_value = "110% [middle of 4 runs]"

[[record]]
molecule = "CCC(CC)c1cc(NC2CCC(N)C2)n2nccc2n1 (configuration not stated)"
experimental_value = "112% [middle of 4 runs]"

[[record]]
molecule = "C=CC(=O)N1CCN(c2nc(OCC3CCCN3C)nc3c(F)c(-c4nc(N)cc(C)c4C(F)(F)F)c(Cl)cc23)C(C)C1 (configuration not stated)"
experimental_value = "64.9%"

[[record]]
molecule = "Nc1ccn(C2OC(CO)C(O)C2(F)F)c(=O)n1 (configuration not stated)"
experimental_value = "9.12% [middle of 4 runs]"


====

# System: HOP-62 complex spheroids with HUVEC/MSC, viability
# TEST DETAILS: Anticancer human tumor HOP-62 cell line growth inhibition [RAS];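 note: spheroids exposed to agents for seven days before readout; 100% = DMSO vehicle control viability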
# MEASUREMENT CONTEXT: second compound 0.003 µM; first compound 1 µM; stronger effect = lower value
# Description: RAS pathway inhibitors in Combinations in Complex Spheroids A high-throughput screen of multi-cell type tumor spheroids was designed to identify active combinations of RAS pathway inhibitors and targeted small molecules. Complex spheroids include a stromal component modeled by human endothelial cells (HUVEC) and fibroblasts modeled by human mesenchymal stem cells (MSCs). […] Compounds. […] If the clinical Cmax for an agent had not been determined, the highest concentration tested was 10 microM. […]
PARAMETER: viability, T/C (%)

[[record]]
molecule = "NC1c2ccccc2OC12CCN(c1cnc3c(N4CCCc5ncccc54)n[nH]c3n1)CC2 (centres undefined) + CCn1c(-c2cc(N3CCN(C)CC3)cnc2C(C)OC)c2c3cc(ccc31)-c1csc(n1)CC(NC(=O)C1CC1C)C(=O)N1CCCC(N1)C(=O)OCC(C)(C)C2"
unit_annotation = "%"
experimental_value = 25

[[record]]
molecule = "Nc1ccn(C2OC(CO)C(O)C2(F)F)c(=O)n1 (centres undefined) + CCn1c(-c2cccnc2C(C)OC)c2c3cc(ccc31)N1CCOC(CC(NC(=O)C(C(C)C)N(C)C(=O)C3(F)CCN(C(=O)C#CC(C)(C)N(C)C)CC3)C(=O)N3CCCC(N3)C(=O)OCC(C)(C)C2)C1"
unit_annotation = "%"
experimental_value = 5.94

[[record]]
molecule = "CC1(O)CCCC1n1c(=O)c(C(F)F)cc2cnc(NC3CCN(S(C)(=O)=O)CC3)nc21 (centres undefined) + CCn1c(-c2cccnc2C(C)OC)c2c3cc(ccc31)N1CCOC(CC(NC(=O)C(C(C)C)N(C)C(=O)C3(F)CCN(C(=O)C#CC(C)(C)N(C)C)CC3)C(=O)N3CCCC(N3)C(=O)OCC(C)(C)C2)C1"
unit_annotation = "%"
experimental_value = 67.6

[[record]]
molecule = "O=C(c1ccc(F)c(F)c1Nc1ccc(I)cc1F)N1CC(O)([C@@H]2CCCCN2)C1 + CCn1c(-c2cccnc2C(C)OC)c2c3cc(ccc31)N1CCOC(CC(NC(=O)C(C(C)C)N(C)C(=O)C3(F)CCN(C(=O)C#CC(C)(C)N(C)C)CC3)C(=O)N3CCCC(N3)C(=O)OCC(C)(C)C2)C1"
unit_annotation = "%"
experimental_value = 46.9

